The reader will find Ki measurements below, all made with Prothrombin (Homo sapiens).
Numbers only; they are read as nM.

N=C(N)c1ccc2ccc(CN(CCc3ccc(F)cc3)C(=O)c3cccc4ccccc34)cc2c1; 1680
N=C(N)c1ccc2ccc(CN(CCc3ccccn3)C(=O)c3cccc4ccccc34)cc2c1; 4760
CC(C)CCN(Cc1ccc2ccc(C(=N)N)cc2c1)C(=O)c1cccc2ccccc12; 1160

In: Entry `COc1ccc(CCN(Cc2ccc3ccc(C(=N)N)cc3c2)C(=O)c2cccc3ccccc23)cc1OC` : reported Ki = ?
Out: 2510

###

study.target: Prothrombin (Homo sapiens)
method.description: Inhibition constant towards human thrombin
quantity.kind: Ki

Worked examples follow.
N=C(N)c1ccc2ccc(CN(CCCN3CCOCC3)C(=O)c3cccc4ccccc34)cc2c1; > 5 µM
CC(C)CC(C(=O)O)N(Cc1ccc2ccc(C(=N)N)cc2c1)C(=O)c1cccc2ccccc12 (single isomer, unassigned); > 5 µM

In: Return Ki measured with Prothrombin (Homo sapiens) given this compound: CC1CCCCN1CCCN(Cc1ccc2ccc(C(=N)N)cc2c1)C(=O)c1cccc2ccccc12 (stereo not drawn)
Out: > 5 µM
